Recorded OD450 nm, one value per entry.
molecular target: T1, human MSLN-hFc protein (Acro, Cat. No. MSN-H5253) (human, UniProt Q13421 296-580); assay: ELISA, coated human MSLN-hFc, antibody 1 nM
T1 construct: bought protein; also called human MSLN full-length protein; not shown: human Fc (hFc) of the bought protein
T1 sequence (Q13421 other isoform, or with tags, fused parts or gaps limits assumed): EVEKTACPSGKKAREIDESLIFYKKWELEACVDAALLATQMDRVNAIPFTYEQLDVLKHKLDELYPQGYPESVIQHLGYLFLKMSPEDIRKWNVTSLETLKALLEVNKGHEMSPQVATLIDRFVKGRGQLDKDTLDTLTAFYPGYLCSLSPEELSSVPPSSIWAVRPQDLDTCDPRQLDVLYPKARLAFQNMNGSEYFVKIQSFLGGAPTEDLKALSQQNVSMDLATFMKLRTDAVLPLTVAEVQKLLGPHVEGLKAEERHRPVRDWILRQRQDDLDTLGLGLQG
Just the number, please.

Completed entries (count: 3):
OD450 nm reported for this binder F2.39.3-H2 (scFv, not shown: small tags and cut ends, also called S009-F2.39.3 humanized VH1 + VL2) scFv: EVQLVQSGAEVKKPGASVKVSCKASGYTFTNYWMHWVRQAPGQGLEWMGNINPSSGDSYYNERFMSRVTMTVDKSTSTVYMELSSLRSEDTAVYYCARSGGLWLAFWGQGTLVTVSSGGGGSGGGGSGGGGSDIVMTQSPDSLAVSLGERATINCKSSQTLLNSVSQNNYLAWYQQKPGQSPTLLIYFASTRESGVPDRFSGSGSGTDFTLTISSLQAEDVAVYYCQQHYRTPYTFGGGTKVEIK : 0.3

The measured OD450 nm associated with F2.39.3-H1 (scFv, not shown: small tags and cut ends, expressed as VH-(G4S)3-VL-his or VL-(G4S)3-VH-his; also called S009-F2.39.3 humanized VH1 + VL1) scFv: EVQLVQSGAEVKKPGASVKVSCKASGYTFTNYWMHWVRQAPGQGLEWMGNINPSSGDSYYNERFMSRVTMTVDKSTSTVYMELSSLRSEDTAVYYCARSGGLWLAFWGQGTLVTVSSGGGGSGGGGSGGGGSDIVMTQSPDSLAVSLGERATINCKSSQTLLNSVSQNNYLAWYQQKPGQSPKLLIYFASTRESGVPDRFSGSGSGTDFTLTISSLQAEDVAVYYCQQHYRTPYTFGGGTKVEIK reads 0.55

Entry F2.39.3-H8 (scFv, not shown: small tags and cut ends, also called S009-F2.39.3 humanized VH2 + VL4) scFv: EVQLVQSGAEVKKPGASVKVSCKASGYTFTNYWMHWVRQAPGQGLEWMGNINPSSGDSYYNERFMSRVTMTVDKSTSTAYMELSSLRSEDTAVYYCARSGGLWLAFWGQGTLVTVSSGGGGSGGGGSGGGGSDIVMTQTPLSLSVTPGQPASISCKSSQTLLNSVSQNNYLAWYQQKPGQSPTLLVYFASTRESGVPDRFSGSGSGTDFTLKISRVEAEDVGVYYCQQHYRTPYTFGGGTKVEIK ; OD450 nm = 0.31

New cases:
Per the record, F2.39.3-H9 (scFv, not shown: small tags and cut ends, also called S009-F2.39.3 humanized VH3 + VL1) scFv: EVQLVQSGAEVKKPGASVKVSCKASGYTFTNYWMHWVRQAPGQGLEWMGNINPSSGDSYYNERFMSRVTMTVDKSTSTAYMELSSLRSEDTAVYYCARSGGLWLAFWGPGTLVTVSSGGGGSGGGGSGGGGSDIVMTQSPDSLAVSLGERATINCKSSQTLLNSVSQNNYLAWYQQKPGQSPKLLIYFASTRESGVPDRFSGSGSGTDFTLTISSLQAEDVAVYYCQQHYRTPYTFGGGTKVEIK has OD450 nm of 0.39

Per the record, F2.39.3-H5 (scFv, not shown: small tags and cut ends, also called S009-F2.39.3 humanized VH2 + VL1) scFv: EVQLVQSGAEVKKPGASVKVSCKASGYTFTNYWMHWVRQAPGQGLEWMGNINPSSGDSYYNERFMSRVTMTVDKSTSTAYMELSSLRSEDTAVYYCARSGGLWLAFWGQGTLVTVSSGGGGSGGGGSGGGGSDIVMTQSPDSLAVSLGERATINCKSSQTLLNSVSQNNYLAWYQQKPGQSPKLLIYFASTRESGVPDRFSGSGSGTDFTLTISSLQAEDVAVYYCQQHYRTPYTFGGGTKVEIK has OD450 nm of 0.39

Quick note, OD450 nm for F2.39.3-H6 (scFv, not shown: small tags and cut ends, also called S009-F2.39.3 humanized VH2 + VL2) scFv: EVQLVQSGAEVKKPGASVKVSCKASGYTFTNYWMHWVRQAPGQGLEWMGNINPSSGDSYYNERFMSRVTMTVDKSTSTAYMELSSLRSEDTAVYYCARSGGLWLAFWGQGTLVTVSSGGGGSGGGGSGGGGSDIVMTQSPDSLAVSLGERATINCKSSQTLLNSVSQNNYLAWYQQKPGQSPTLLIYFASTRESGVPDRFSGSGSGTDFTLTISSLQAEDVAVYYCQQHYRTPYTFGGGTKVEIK landed at 0.31
